Source listed as ChEMBL document CHEMBL1142320.

- Assay overview: Oral bioavailability in rat
- Format: ADME, organism-based
- Run conditions: in vivo
Outcome label depends on bioavailability relative to 20%: at/above gives Yes, below gives No.

[[record]]
smi = "COc1ccc(CNC(=O)c2ccc3ncn(Cc4ccc(C(=O)O)cc4)c(=O)c3c2)cc1"
class_name = "No"

[[record]]
smi = "COc1cccc(CNC(=O)c2cc3c(=O)n(Cc4ccc(C(=O)O)cc4)cnc3cc2F)c1"
class_name = "Yes"


### Prompt Please check the record COc1ccc(CNC(=O)c2cc3c(=O)n(Cc4ccc(C(=O)O)cc4)cnc3cn2)cc1 and state if its bioavailability is at or above 20%.
### Response Yes

### Prompt Is bioavailability for O=C(O)c1ccc(Cn2cnc3ccc(C#CCn4ccnc4)cc3c2=O)cc1 at or above 20%?
### Response No

### Prompt Does bioavailability meet or surpass 20% for O=C(O)c1ccc(Cn2cnc3ccc(C#CCc4ccccc4)cc3c2=O)cc1 ?
### Response Yes

### Prompt Decide: bioavailability of O=c1c2cc(C#CCc3ccccc3)ccc2ncn1Cc1cc(F)c(O)c(F)c1 >= 20%?
### Response No

### Prompt For this molecule, is measured bioavailability 20% or higher? COc1ccc(CNC(=O)c2ccc3ncn(Cc4ccc(OC)cc4)c(=O)c3c2)cc1
### Response Yes

### Prompt Item COc1cccc(CNC(=O)c2cc3c(=O)n(Cc4ccc(C(=O)O)cc4)cnc3cn2)c1 with bioavailability of 20% or above?
### Response Yes

### Prompt Evaluate COc1ccc(CC#Cc2ccc3ncn(Cc4ccc(C(=O)O)cc4)c(=O)c3c2)cc1 : bioavailability at minimum 20%?
### Response Yes
